- System: 855422-203-R-J1-PDC spheroids with HUVEC/MSC, viability
- PROTOCOL_DETAILS: Anticancer human tumor 855422-203-R-J1-PDC patient-derived bladder carcinoma cell line growth inhibition [PI3K]
- TEST_PARAMETERS: second compound 0.0316 µM; first compound 0.1 µM; stronger effect = lower value
OBSERVABLE: viability, T/C (%)
Numbers only here, please. The scale is %.

MOLECULE | viability, T/C [%]
C=CC(=O)N1CCN(c2nc(=O)n(-c3c(C)ccnc3C(C)C)c3nc(-c4c(O)cccc4F)c(F)cc23)C(C)C1 (stereo not drawn) + CC(Nc1ncnc2nc[nH]c12)c1cc2cccc(Cl)c2c(=O)n1-c1ccccc1 | 91.1
CCN1CCN(Cc2ccc(Nc3ncc(F)c(-c4cc(F)c5nc(C)n(C(C)C)c5c4)n3)nc2)CC1 + Cc1nc(NC(=O)N2CCCC2C(N)=O)sc1-c1ccnc(C(C)(C)C(F)(F)F)c1 | 70.4

Inquiry: Value lookup for viability, T/C; key = CNC(=O)c1ccc(N2C(=S)N(c3ccc(C#N)c(C(F)(F)F)c3)C(=O)C2(C)C)cc1F + CC(Nc1ccc2c(c1)OCCn1cc(N3C(=O)OCC3C(F)F)nc1-2)C(N)=O
Reply text: 82.1

====

- System: 855422-203-R-J1-PDC spheroids with HUVEC/MSC, viability
- PROTOCOL_DETAILS: Anticancer human tumor 855422-203-R-J1-PDC cell line growth inhibition [PI3K];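 also: agents incubated with spheroids for one week before read-out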;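 as to viability, T/C: 100% = DMSO vehicle-treated control wells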
- TEST_PARAMETERS: second compound 0.1 µM; first compound 0.1 µM; stronger effect = lower value
OBSERVABLE: viability, T/C (%)
Write the number in % without appending the unit.

MOLECULE | TARGET_OR_TEST_SYSTEM | viability, T/C (%)
Cn1ncnc1[C@H]1c2n[nH]c(=O)c3cc(F)cc(c23)N[C@@H]1c1ccc(F)cc1 + CC(Nc1ccc2c(c1)OCCn1cc(N3C(=O)OCC3C(F)F)nc1-2)C(N)=O | 855422-203-R-J1-PDC spheroids with HUVEC/MSC, viability | 80.8
CC(=O)c1c(C)c2cnc(Nc3ccc(N4CCNCC4)cn3)nc2n(C2CCCC2)c1=O + Cc1nc(NC(=O)N2CCCC2C(N)=O)sc1-c1ccnc(C(C)(C)C(F)(F)F)c1 | 855422-203-R-J1-PDC spheroids with HUVEC/MSC, viability | 76.7

Kindly review the next molecule as well.
Inquiry: # get_value(readout='viability, T/C', item= CC(C)n1nc(-c2ccc3oc(N)nc3c2)c2c(N)ncnc21 + CC(Nc1ccc2c(c1)OCCn1cc(N3C(=O)OCC3C(F)F)nc1-2)C(N)=O )
Reply text: 11.4

====

- System: 855422-203-R-J1-PDC spheroids with HUVEC/MSC, viability
- PROTOCOL_DETAILS: Anticancer human tumor 855422-203-R-J1-PDC cell line growth inhibition [PI3K];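 also: agents incubated with spheroids for one week before read-out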
- TEST_PARAMETERS: curve of first compound; second compound 0.1 µM
compounds and their reported pIC50
To interpret pIC50, take it as minus log10 of a concentration measured in moles per litre.

COMPOUND | pIC50
CCCS(=O)(=O)Nc1ccc(F)c(C(=O)c2c[nH]c3ncc(-c4ccc(Cl)cc4)cc23)c1F + CC(Nc1ncnc2nc[nH]c12)c1cc2cccc(Cl)c2c(=O)n1-c1ccccc1 | 5.43

# input for lookup
Inquiry: What measured pIC50 goes with Cn1ncc(Cl)c1-c1cc(C(=O)NC(CN)Cc2cccc(F)c2)sc1Cl (stereo not given) + Cc1nc(NC(=O)N2CCCC2C(N)=O)sc1-c1ccnc(C(C)(C)C(F)(F)F)c1 ?
Reply text: 5.94
